Where do these numbers come from? They come from ChEMBL document CHEMBL3352520.

Target: Angiotensin-converting enzyme (Homo sapiens) (UniProt P12821)
Sequence (P12821 whole entry): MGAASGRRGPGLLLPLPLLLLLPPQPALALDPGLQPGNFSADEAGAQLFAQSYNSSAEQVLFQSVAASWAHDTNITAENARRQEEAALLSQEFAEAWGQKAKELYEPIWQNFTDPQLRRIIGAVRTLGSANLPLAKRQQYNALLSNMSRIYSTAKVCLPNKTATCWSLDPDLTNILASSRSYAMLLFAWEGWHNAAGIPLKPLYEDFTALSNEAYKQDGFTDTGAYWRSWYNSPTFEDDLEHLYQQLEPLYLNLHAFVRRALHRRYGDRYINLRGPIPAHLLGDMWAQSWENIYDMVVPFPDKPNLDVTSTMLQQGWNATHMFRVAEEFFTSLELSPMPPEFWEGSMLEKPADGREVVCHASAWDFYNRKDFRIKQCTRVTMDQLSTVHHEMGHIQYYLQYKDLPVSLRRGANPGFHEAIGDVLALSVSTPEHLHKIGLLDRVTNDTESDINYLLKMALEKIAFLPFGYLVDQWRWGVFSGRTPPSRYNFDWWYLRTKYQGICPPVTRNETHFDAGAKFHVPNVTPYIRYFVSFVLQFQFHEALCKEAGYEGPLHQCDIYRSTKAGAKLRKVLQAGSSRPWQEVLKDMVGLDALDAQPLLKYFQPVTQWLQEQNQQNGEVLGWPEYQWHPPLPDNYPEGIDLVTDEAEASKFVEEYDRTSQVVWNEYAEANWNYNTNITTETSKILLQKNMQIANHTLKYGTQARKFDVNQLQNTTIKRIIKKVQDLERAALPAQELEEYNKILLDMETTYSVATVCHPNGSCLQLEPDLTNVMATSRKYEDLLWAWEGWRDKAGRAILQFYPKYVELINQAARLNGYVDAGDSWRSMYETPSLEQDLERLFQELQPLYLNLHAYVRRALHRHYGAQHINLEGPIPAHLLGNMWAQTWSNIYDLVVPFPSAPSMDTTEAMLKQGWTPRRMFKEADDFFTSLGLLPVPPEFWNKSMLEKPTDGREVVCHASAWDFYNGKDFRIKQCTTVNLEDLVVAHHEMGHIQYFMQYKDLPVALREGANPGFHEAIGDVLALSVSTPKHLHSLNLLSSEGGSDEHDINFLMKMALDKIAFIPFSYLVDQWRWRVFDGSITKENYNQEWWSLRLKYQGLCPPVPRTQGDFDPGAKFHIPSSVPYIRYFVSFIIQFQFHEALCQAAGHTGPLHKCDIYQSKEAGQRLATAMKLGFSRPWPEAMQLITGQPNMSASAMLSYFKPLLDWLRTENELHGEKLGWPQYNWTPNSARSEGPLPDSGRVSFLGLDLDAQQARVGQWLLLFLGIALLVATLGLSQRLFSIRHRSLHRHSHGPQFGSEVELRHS
Assay: Inhibition of ACE (unknown origin)
Set-up: unit not given here
Residues, ends and D or L forms follow the SMILES beside them.
API: label(entry) gives Yes if the entry's logIC50 is strictly smaller than 1; on equality or larger values it gives No.

These solved cases illustrate the format of a correct answer.
* NCC(=O)N[C@@H](Cc1ccccc1)C(=O)O (H-Gly-Phe-OH) | No
* CC(C)[C@H](N)C(=O)N[C@H](C(=O)N1CCC[C@H]1C(=O)N1CCC[C@H]1C(=O)O)C(C)C (H-VVPP-OH) | No
* CC(C)C[C@H](N)C(=O)N[C@@H](CCCCN)C(=O)N1CCC[C@H]1C(=O)O (H-Leu-Lys-Pro-OH) | Yes
* CC[C@H](C)[C@H](N)C(=O)N[C@@H](Cc1c[nH]c2ccccc12)C(=O)O | Yes
* CC(C)C[C@H](N)C(=O)N[C@@H](Cc1c[nH]c2ccccc12)C(=O)O | No
* NCC(=O)N[C@@H](Cc1c[nH]c2ccccc12)C(=O)O (H-Gly-Trp-OH) | No
* N=C(N)NCCC[C@H](NC(=O)CN)C(=O)N1CCC[C@H]1C(=O)O (H-Gly-Arg-Pro-OH) | No
* N=C(N)NCCC[C@H](N)C(=O)N[C@@H](Cc1ccc(O)cc1)C(=O)O (H-Arg-Tyr-OH) | No

[ask] State whether 1 exceeds logIC50 recorded for NCCCC[C@H](NC(=O)CN)C(=O)N1CCC[C@H]1C(=O)O (H-Gly-Lys-Pro-OH) .
[reply] No

[ask] State whether 1 exceeds logIC50 recorded for NC(N)=NCCC[C@H](N)C(=O)N[C@@H](Cc1ccccc1)C(=O)O .
[reply] No

[ask] State whether 1 exceeds logIC50 recorded for CC(C)[C@H](N)C(=O)NCC(=O)N1CCC[C@H]1C(=O)O (H-Val-Gly-Pro-OH) .
[reply] No

[ask] State whether 1 exceeds logIC50 recorded for NCCCC[C@H](N)C(=O)N1CCC[C@H]1C(=O)O (H-Lys-Pro-OH) .
[reply] No

[ask] State whether 1 exceeds logIC50 recorded for CC(C)[C@H](N)C(=O)N[C@@H](Cc1ccccc1)C(=O)O (H-Val-Phe-OH) .
[reply] Yes

[ask] State whether 1 exceeds logIC50 recorded for CC(C)C[C@H](N)C(=O)N[C@@H](Cc1ccc(O)cc1)C(=O)O .
[reply] No

[ask] State whether 1 exceeds logIC50 recorded for N[C@@H](Cc1ccccc1)C(=O)N1CCC[C@H]1C(=O)O (H-Phe-Pro-OH) .
[reply] No
